Species: Cavia porcellus
ASSAY_DETAILS: Tested for cecal ulceration in diarrhea at 60 umol concentration of compound
Assay type: functional
TEST_READOUT: Incidence (%)
# output: bare number, implied unit %

Give its Incidence value. Item: O=C(O)c1cc(/N=N/c2ccc(S(=O)(=O)Nc3ccccn3)cc2)ccc1O [SULFASALAZINE]
100

Could you share which Incidence value was measured for O=C([O-])c1cc(/N=N/c2ccc(S(=O)(=O)Nc3ccccn3)cc2)ccc1O.[Na+] [POLYMER OF SULFASALAZINE] ?
85

Request the reported Incidence associated with Nc1ccc(S(=O)(=O)Nc2ccccn2)cc1 [SULFAPYRIDINE]
80

Reported Incidence for Nc1ccc(O)c(C(=O)O)c1 [MESALAMINE] : what is it?
83
